These data points were gathered from paper PMC9931008.

- target entity: human CYP3A4 (Homo sapiens, UniProt P08684, S18F)
- Format: in vitro ADME
- cond: IC50(+), NFO activity; 10-min NADPH-fortified pre-incubation
Recorded IC50 values for a group of molecules are listed next.

[[record]]
molecule = "COc1cc2c(c(OC)c1OC)-c1c(cc3c(c1OC)OCO3)CC(C)C(C)C2 (centres unmarked)"
result = "1.5 µM"


# input Kindly state the measured IC50 obtained for `COc1cc2c(c(OC)c1OC)-c1c(cc3c(c1OC)OCO3)C[C@H](C)[C@](C)(O)[C@H]2OC(=O)c1ccccc1` with human CYP3A4 (Homo sapiens, UniProt P08684, S18F).
# output 0.06 µM

----------
Recorded inhibition at 100 µM values for a group of molecules are listed next.
- Tested on: nifedipine oxidation (NFO) activity
- Format: in vitro ADME, rat
- cond: rat, rat hepatic and intestinal microsomes, probe nifedipine

[[record]]
given_smiles = "COc1cc(C[C@H]2C(=O)OC[C@@H]2Cc2ccc(OC)c(OC)c2)ccc1O"
result = "≤ 50%"


From here, focus on the item given below.
# input Item under review: `C[C@@H]1CC[C@@]2(OC1)O[C@H]1C[C@H]3[C@@H]4CC=C5C[C@@H](O)C[C@@H](O)[C@]5(C)[C@H]4CC[C@]3(C)[C@H]1[C@@H]2C` . Reported inhibition at 100 µM?
# output ≤ 50%

----------
Recorded pIC50 values for a group of molecules are listed next.
- System: nifedipine oxidation (NFO) activity
- Type: in vitro ADME, rat
- cond: rat, rat hepatic (liver) microsomes, probe nifedipine, IC50, NFO activity, Liver, ingredient; 10-min NADPH-fortified pre-incubation
pIC50: −log10 of the molar value.

Known pIC50 results, listed for orientation:
[[record]]
molecule = "CC(C)=CCC[C@](C)(O[C@@H]1O[C@H](CO[C@@H]2O[C@H](CO)[C@@H](O)[C@H](O)[C@H]2O)[C@@H](O)[C@H](O)[C@H]1O)[C@H]1CC[C@]2(C)[C@@H]1[C@H](O)C[C@@H]1[C@@]3(C)CC[C@H](O[C@@H]4O[C@H](CO)[C@@H](O)[C@H](O)[C@H]4O[C@@H]4O[C@H](CO)[C@@H](O)[C@H](O)[C@H]4O)C(C)(C)[C@@H]3CC[C@]12C [Ginsenoside Rb1, ginsenoside Rb1]"
readout_kind = "pIC50"
result = "< 4.00"

[[record]]
molecule = "CC1(C)CCC[C@](C)([C@H]2CC[C@]3(C)[C@@H]2[C@H](O)C[C@@H]2[C@@]4(C)CC[C@H](O)C(C)(C)[C@@H]4[C@@H](O)C[C@]23C)O1"
readout_kind = "pIC50"
result = "< 4.00"

[[record]]
molecule = "COc1cc(C[C@H]2C(=O)OC[C@@H]2Cc2ccc(OC)c(OC)c2)ccc1O"
readout_kind = "pIC50"
result = "< 4.00"

[[record]]
molecule = "CC(C)=CCC[C@](C)(O[C@@H]1O[C@H](CO)[C@@H](O)[C@H](O)[C@H]1O)[C@H]1CC[C@]2(C)[C@@H]1[C@H](O)C[C@@H]1[C@@]3(C)CC[C@H](O[C@@H]4O[C@H](CO)[C@@H](O)[C@H](O)[C@H]4O[C@@H]4O[C@H](CO)[C@@H](O)[C@H](O)[C@H]4O)C(C)(C)[C@@H]3CC[C@]12C [Ginsenoside Rd, ginsenoside Rd]"
readout_kind = "pIC50"
result = 4.10


# input Item under review: `C[C@@H]1CC[C@@]2(OC1)O[C@H]1C[C@H]3[C@@H]4CC=C5C[C@@H](O)C[C@@H](O)[C@]5(C)[C@H]4CC[C@]3(C)[C@H]1[C@@H]2C` . Reported pIC50?
# output < 4.00
